Values compiled from the supplement of paper PMC7724964.

- Study target: RANBP1 39-170 Ran_BP1 (domain begin residue: 39, domain end residue: 170), P43487
- Sequence (P43487 whole entry): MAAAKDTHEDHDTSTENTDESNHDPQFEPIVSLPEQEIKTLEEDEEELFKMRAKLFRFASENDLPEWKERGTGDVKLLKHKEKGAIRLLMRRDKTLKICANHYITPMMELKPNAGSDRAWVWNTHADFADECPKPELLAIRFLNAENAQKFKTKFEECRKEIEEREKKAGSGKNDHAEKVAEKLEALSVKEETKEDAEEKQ
- Protocol: phage ELISA signal ratio (GST-PRM binding over GST background); higher = stronger binding of peptide-phage to the PRM
Recorded endpoint: phage ELISA signal ratio

Binder: VSDMRGVPDSFMDVWD
Recorded value: 5.06

Binder: WDVALPQEIVWELADK
Recorded value: 7.66

Binder: WEHLYPWMIPLPGTGV
Recorded value: 6.24

Binder: YGMRLPEASQMETWFL
Recorded value: 6.18

Binder: QAVVPWQMPLPDWIVS
Recorded value: 18.4

Binder: WEWSPLPPDVETFSQI
Recorded value: 15.9

Binder: WGQMPLPVDMPETWNF
Recorded value: 21
